Target Or Test System: CYP3A4 (Homo sapiens, UniProt P08684)
Sequence (P08684 2-503): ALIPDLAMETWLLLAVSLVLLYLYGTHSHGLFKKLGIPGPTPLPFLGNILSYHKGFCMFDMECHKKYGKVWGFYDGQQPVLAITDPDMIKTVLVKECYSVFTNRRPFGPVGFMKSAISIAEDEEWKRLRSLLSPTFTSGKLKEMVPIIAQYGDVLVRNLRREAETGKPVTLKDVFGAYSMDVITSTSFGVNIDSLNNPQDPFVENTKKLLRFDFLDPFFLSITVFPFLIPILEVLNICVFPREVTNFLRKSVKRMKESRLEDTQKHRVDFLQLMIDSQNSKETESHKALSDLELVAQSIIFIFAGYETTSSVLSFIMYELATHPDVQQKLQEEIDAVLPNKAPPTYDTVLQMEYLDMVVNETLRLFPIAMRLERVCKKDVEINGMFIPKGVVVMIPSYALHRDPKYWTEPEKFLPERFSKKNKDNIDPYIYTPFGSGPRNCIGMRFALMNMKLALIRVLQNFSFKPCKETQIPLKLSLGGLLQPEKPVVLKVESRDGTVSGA
Run Description: in vitro
Condition Label: human, microsomes, pH 7.4, IC50, CYP3A4-Testosterone Inactivation; minus NADPH; 30 min pre-incubation
pIC50: −log10 of the molar value.
Measure Name: pIC50

The molecule identified as "Cc1cn2nc(-c3cc(=O)n4cc(N5CCNC6(CC6)C5)ccc4n3)cc(C)c2n1" registered its pIC50 at < 4.90

---

Target Or Test System: CYP3A4 (Homo sapiens)
Run Description: Direct inhibition of CYP3A4 (midazolam and testosterone) in human liver microsomes
Assay type: in vitro ADME
Condition Label: human, microsomes, pH 7.4, IC50, direct; CYP3A4-Midazolam Activity
pIC50: −log10 of the molar value.
Measure Name: pIC50

The compound identified as "Cc1cn2nc(-c3cc(=O)n4cc(N5CCNC6(CC6)C5)ccc4n3)cc(C)c2n1" registered its pIC50 at > 4.90
